Data credit: paper PMC3017643

- target system: T1, full-length β-catenin (residues 1–781) (murine, UniProt Q02248 1-781)
- T1 sequence (looked up): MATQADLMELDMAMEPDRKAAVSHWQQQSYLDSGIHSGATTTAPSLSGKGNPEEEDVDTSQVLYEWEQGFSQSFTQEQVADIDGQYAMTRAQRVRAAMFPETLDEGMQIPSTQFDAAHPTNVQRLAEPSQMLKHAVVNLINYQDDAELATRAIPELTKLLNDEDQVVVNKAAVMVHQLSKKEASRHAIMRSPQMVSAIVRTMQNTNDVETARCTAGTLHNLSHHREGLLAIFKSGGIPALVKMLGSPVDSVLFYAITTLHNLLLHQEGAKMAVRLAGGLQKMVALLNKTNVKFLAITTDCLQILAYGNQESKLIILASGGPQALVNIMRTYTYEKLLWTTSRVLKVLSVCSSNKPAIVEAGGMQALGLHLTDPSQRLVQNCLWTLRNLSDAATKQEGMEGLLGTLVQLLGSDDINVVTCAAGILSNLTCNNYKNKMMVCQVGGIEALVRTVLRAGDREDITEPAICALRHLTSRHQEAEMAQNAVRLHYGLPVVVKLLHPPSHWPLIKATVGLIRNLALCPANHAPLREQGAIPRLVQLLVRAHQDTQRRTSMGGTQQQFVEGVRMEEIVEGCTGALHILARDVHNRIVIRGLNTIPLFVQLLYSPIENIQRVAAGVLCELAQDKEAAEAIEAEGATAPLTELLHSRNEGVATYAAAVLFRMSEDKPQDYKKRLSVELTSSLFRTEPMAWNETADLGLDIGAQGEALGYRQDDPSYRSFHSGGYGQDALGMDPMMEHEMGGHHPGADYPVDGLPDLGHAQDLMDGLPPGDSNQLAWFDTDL
- protocol text: ITC
property: pKd
API: returns pKd as number; meaning -log10 of concentration in mol/L.

Task: Data request, read-out pKd, for human TCF4 β-catenin binding region, residues 1–57 (domain or fragment, UniProt Q9NQB0 1-57, looked up) MPQLNGGGGDDLGANDELISFKDEGEQEEKSSENSSAERDLADVKSSLVNESETNQN
Output: 7.80
